Compiled notes: published pKi values involving Plasminogen (Homo sapiens, UniProt P00747).
pKi: −log10 of the molar value.
metric: pKi

Sample answers from the record:
C/C(=N\NC(=N)N)c1cc(NC(=O)CCCN)cc(/C(C)=N/NC(=N)N)c1; 3.96
O=C(CC[C@H]1CCC[C@@H](NC(=O)[C@H](Cc2c[nH]c3ccccc23)NC(=O)OCc2ccccc2)C1=O)N[C@@H](Cc1c[nH]c2ccccc12)C(=O)O (stereo in doubt; 15A); 5.30
N=C(N)c1cccc(C[C@H](NS(=O)(=O)c2cccc(NC(=O)CCN)c2)C(=O)N2CCN(C(=O)OCc3ccccc3)CC2)c1; 5.89
N=C(N)c1cccc(C[C@H](NS(=O)(=O)c2cccc(NC(=O)C3CNC3)c2)C(=O)N2CCC(CCN)CC2)c1; 6.30
N=C(N)c1ccc2ccccc2c1; 4.29
N=C(N)c1ccc2cc(C(=O)Nc3ccccc3)cc(-c3ccoc3)c2c1; 6.49

[I] CN(Cc1ccc(CN(C)C(=O)CCC(=O)NCc2ccc(CN)cc2)cc1)C(=O)CCC(=O)NCc1ccc(CN)cc1
[II] CC(C)Oc1cccc(NC(=O)c2cc(C3CCOC3)c3cc(C(=N)N)ccc3c2)c1 (configuration not stated)
Q. Given I and II , report the one with the higher recorded pKi. # respond with the chosen item's label
A. II

[a] CC(C)c1cc(C(C)C)c(S(=O)(=O)N[C@@H](Cc2cccc(C(=N)N)c2)C(=O)N2CCC(CCN=C(N)N)CC2)c(C(C)C)c1
[b] COc1ccc2ccc(C(=N)N)cc2c1C1CCOC1 (configuration not stated)
Q. Given a and b , report the one with the higher recorded pKi. # respond with the chosen item's label
A. a

[P] N=C(N)c1cccc(C[C@H](NS(=O)(=O)c2cccc(NC(=O)CCN)c2)C(=O)N2CCCC(C(N)=O)C2)c1 (some centres not stated)
[Q] CC(C)c1cc(C(C)C)c(S(=O)(=O)N[C@@H](Cc2cccc(C(=N)N)c2)C(=O)N2CCN(C(=O)CCCN)CC2)c(C(C)C)c1
Q. Given P and Q , report the one with the higher recorded pKi. # respond with the chosen item's label
A. Q
(Q: 6.19, P: 5.89)

[A] COc1ccc2ccc(S(=O)(=O)N[C@H]3CCN(Cc4cccc(C(=N)N)c4)C3=O)cc2c1
[B] N=C(N)c1ccc(CNC(=O)[C@@H]2Cc3ccc(cc3)NC(=O)CCN3CCN(CCC(=O)Nc4cccc(c4)C[C@@H](NS(=O)(=O)Cc4ccccc4)C(=O)N2)CC3)cc1
Q. Select one. Lower pKi: A or B # respond with the chosen item's label
A. A
(A: 5.33, B: 8.40)

[1] CC1CCC(NC(=O)c2cc(Oc3ccc(C(=N)N)cc3)cc(Oc3ccc(C(=N)N)cc3)c2)CC1 (configuration not stated)
[2] COC(=O)[C@H](Cc1cccc(C(=N)N)c1)[C@@H](C)NC(=O)c1ccc(-c2cccc(C(N)=O)c2)cc1
Q. Select one. Lower pKi: 1 or 2 # respond with the chosen item's label
A. 1
(1: 5.44, 2: 6.85)

[P] CC(=N)N1CCC(Oc2ccc(C(Cc3ccc4cc[n+](C(=N)N)cc4c3)C(=O)O)cc2)C1 (configuration not stated)
[Q] CCN(CC)C(=O)CN[C@@H](C(=O)N1CCC[C@H]1C(=O)NCc1cc(Cl)ccc1Cl)C1CCCCC1
[R] N=C(N)NCCC(=O)N1CCN(C(=O)[C@H](Cc2cccc(C(=N)N)c2)NS(=O)(=O)c2ccc3ccccc3c2)CC1
Q. Hey, can you sort those compounds up there by pKi, smallest first? API: response body holds the labels in the requested order.
A. Q, P, R

[A] N=C(N)c1ccc(O)c(CN2CC[C@H](NS(=O)(=O)c3cc4ccncc4s3)C2=O)c1
[B] CC(C)(C)OC(=O)N[C@@H](CO)C(=O)NCC(=O)NCc1ccc(C(=N)N)cc1
Q. Given A and B , report the one with the higher recorded pKi. # respond with the chosen item's label
A. A

[I] N=C(N)c1ccc(CC(=O)N2CCN(C(=O)O[C@H]3CCC[C@@H](OC(=O)N4CCN(C(=O)Cc5ccc(C(=N)N)cc5)CC4)CCC3)CC2)cc1
[II] C/C(=N\NC(=N)N)c1cc(NC(=O)CCCCNC(=N)N)cc(/C(C)=N/NC(=N)N)c1
Q. Given I and II , report the one with the higher recorded pKi. # respond with the chosen item's label
A. I
(I: 3.81, II: 3.00)

[1] CC(C)C1=NCCc2ccc(C3CC3c3ccc4cc(C(=N)N)ccc4c3)cc21 (configuration not stated)
[2] N=C(N)c1cccc(C[C@H](NS(=O)(=O)c2ccc3c(c2)C(=O)c2ccccc2C3=O)C(=O)N2CCC(C(=O)NCCN)CC2)c1
Q. Select one. Lower pKi: 1 or 2 # respond with the chosen item's label
A. 2
